Target: human GLP-1R (Homo sapiens, UniProt P43220, G168S)
Sequence (P43220 24-463 G168S limits assumed): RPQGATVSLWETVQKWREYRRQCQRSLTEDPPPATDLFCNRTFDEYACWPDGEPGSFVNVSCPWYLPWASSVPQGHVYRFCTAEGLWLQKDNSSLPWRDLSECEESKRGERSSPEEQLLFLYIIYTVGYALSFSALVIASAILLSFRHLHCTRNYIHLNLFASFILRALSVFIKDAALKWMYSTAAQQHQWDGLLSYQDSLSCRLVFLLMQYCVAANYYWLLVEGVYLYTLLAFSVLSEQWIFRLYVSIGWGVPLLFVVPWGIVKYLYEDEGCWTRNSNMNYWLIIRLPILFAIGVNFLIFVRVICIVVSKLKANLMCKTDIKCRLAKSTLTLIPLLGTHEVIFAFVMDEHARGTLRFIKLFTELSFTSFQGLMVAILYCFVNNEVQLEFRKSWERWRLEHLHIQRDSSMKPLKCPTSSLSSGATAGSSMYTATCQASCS
Assay Summary: CHO GLP-1R Clone H6—Assay 1: HTRF cAMP cell-based functional agonist assay (high GLP-1R density)
Assay Setup: read-out: Assay 1 Emax (%), CHO GLP-1R Clone H6; relative to saturating concentration of full agonist GLP-1 (1 μM); arithmetic mean
Measured Attribute: Emax (%)

C[C@H]1CN(c2cccc(OCc3ccc(C#N)cc3F)n2)CCN1Cc1nc2ccc(C(=O)O)cc2n1Cc1cncn1C [Example 10A-25]    82
O=C(O)c1ccc2nc(CN3CCC(c4cccc(OCc5ccc(Cl)cc5F)n4)CC3)n([C@@H]3CCOC3)c2c1 [Example 10A-60]    81
Cn1c(CN2CCC(c3cccc(OCc4ccc(F)cc4F)n3)CC2)nc2ccc(C(=O)O)cc21    79

---

Target: human GLP-1R (Homo sapiens (Human), UniProt P43220, L260F)
Sequence (P43220 24-463 L260F): as the sequence (P43220 24-463 G168S limits assumed) above, with S145G, L237F counted along it
Assay Summary: CHO GLP-1R Clone C6—Assay 2: HTRF cAMP cell-based functional agonist assay (low GLP-1R density)
Assay Setup: CHO GLP-1R Clone C6, cAMP HTRF; geometric mean
Measured Attribute: EC50 (nM)

COCCn1c(CN2CCN(c3cccc(OCc4ccc(C#N)cc4)n3)C[C@@H]2C)nc2ccc(C(=O)O)cc21 [Example 12A-08]    150

A. CCn1cnnc1Cn1c(CN2CCN(c3cccc(OCc4ccc(Cl)cc4F)n3)C[C@@H]2C)nc2ccc(C(=O)O)cc21 [Example 10A-21]
B. Cn1cnnc1Cn1c(CN2CCC(c3cccc(OCc4ccc(C#N)cc4F)n3)CC2)nc2ccc(C(=O)O)cc21 [Example 1A-20]
C. COCCn1c(CN2CCC(c3cccc(OCc4ccc(Cl)cc4F)n3)CC2C)nc2ccc(C(=O)O)cc21 (single isomer, unassigned) [Example 13A-04]
D. O=C(O)c1ccc2nc(CN3CCC(c4cccc(OCc5ccc(F)cc5F)n4)CC3)n(C[C@@H]3CCO3)c2c1 [Example 10A-05]
Hello, I need these entries ordered by EC50, highest reading first. Thanks! Record the ranking as a list of labels in the requested order.
C, B, A, D

1. O=C(O)c1ccc2nc(CN3CCC(c4cccc(OCc5ccc(Cl)cc5F)n4)CC3)n(Cc3cocn3)c2c1 [Example 10A-41]
2. O=C(O)c1ccc2nc(CN3CCC(c4cccc(OCc5ccc(F)cc5F)n4)CC3)n(C[C@@H]3CCO3)c2n1 [Example 2A-20]
3. COCCn1c(CN2CCN(c3nc(OCc4ccc(Cl)cc4F)ccc3F)C[C@@H]2C)nc2ccc(C(=O)O)cc21 [Example 1A-06]
Arrange these 3 compounds in increasing order of EC50. State the ranking by listing the labels in the requested order.
2, 1, 3

---

Target: human GLP-1R (Homo sapiens, UniProt P43220, G168S)
Assay Summary: CHO GLP-1R Clone H6—Assay 1: HTRF cAMP cell-based functional agonist assay (high GLP-1R density)
Assay Setup: read-out: Assay 1 Emax (%), CHO GLP-1R Clone H6; relative to saturating concentration of full agonist GLP-1 (1 μM); arithmetic mean
Measured Attribute: Emax (%)

Cc1cc(Cn2c(CN3CCC(c4cccc(OCc5ccc(Cl)cc5F)n4)CC3)nc3ccc(C(=O)O)cc32)[nH]n1 [Example 11A-58]    81
CCn1cnnc1Cn1c(CN2CCC(c3cccc(OCc4ccc(Cl)cc4F)n3)CC2)nc2ccc(C(=O)O)cc21 [Example 10A-07]    82
COCCn1c(CN2CCC(c3cccc(OCc4ccc(Cl)cc4F)n3)CC2)nc2ncc(C(=O)O)nc21    82

---

Target: human GLP-1R (Homo sapiens (Human), UniProt P43220, L260F)
Assay Summary: CHO GLP-1R Clone C6—Assay 2: HTRF cAMP cell-based functional agonist assay (low GLP-1R density)
Assay Setup: CHO GLP-1R Clone C6; relative to saturating concentration of full agonist GLP-1 (1 μM); arithmetic mean; read-out: Assay 2 Emax (%)
Measured Attribute: Emax (%)

COC1(Cn2c(CN3CCC(c4cccc(OCc5ccc(Cl)cc5F)n4)CC3)nc3ccc(C(=O)O)cc32)CCC1 [Example 10A-26]    80
COCCn1c(CN2CCN(c3cccc(OCc4ccc(Cl)cc4F)n3)CC2C(F)(F)F)nc2ccc(C(=O)O)cc21 (single isomer, unassigned; enantiomer 2) [Example 12A-02]    82
CO[C@H]1C[C@@H](Cn2c(CN3CCC(c4cccc(OCc5ccc(Cl)cc5F)n4)CC3)nc3ccc(C(=O)O)cc32)C1    100

---

Target: human GLP-1R (Homo sapiens (Human), UniProt P43220, L260F)
Assay Summary: CHO GLP-1R Clone C6—Assay 2: HTRF cAMP cell-based functional agonist assay (low GLP-1R density)
Assay Setup: CHO GLP-1R Clone C6; relative to saturating concentration of full agonist GLP-1 (1 μM); arithmetic mean; read-out: Assay 2 Emax (%)
Measured Attribute: Emax (%)

Cn1cncc1Cn1c(CN2CCN(c3cccc(OCc4ccc(C#N)cc4F)n3)CC2)nc2ccc(C(=O)O)cc21 [Example 10A-37]    110
CCn1cncc1Cn1c(CN2CCN(c3cccc(OCc4ccc(C#N)cc4F)n3)C[C@@H]2C)nc2ccc(C(=O)O)cc21 [Example 10A-63]    110
COCCn1c(CN2CCN(c3ccc(F)c(OCc4ccc(Cl)cc4F)n3)C[C@@H]2C)nc2ccc(C(=O)O)cc21    82

---

Target: human GLP-1R (Homo sapiens (Human), UniProt P43220, L260F)
Assay Summary: CHO GLP-1R Clone C6—Assay 2: HTRF cAMP cell-based functional agonist assay (low GLP-1R density)
Assay Setup: CHO GLP-1R Clone C6; relative to saturating concentration of full agonist GLP-1 (1 μM); arithmetic mean; read-out: Assay 2 Emax (%)
Measured Attribute: Emax (%)

O=C(O)c1ccc2nc(CN3CCC(c4cccc(OCc5ccc(Cl)cc5F)n4)CC3)n(Cc3ncco3)c2n1    88
C[C@H]1CN(c2cccc(OCc3ccc(C#N)cc3F)n2)CCN1Cc1nc2ccc(C(=O)O)cc2n1Cc1cnnn1C [Example 10A-23]    91
Cn1c(CN2CCC(c3cccc(OCc4ccc(C#N)cc4)n3)CC2)nc2ccc(C(=O)O)cc21    90
